# target.entity: Nuclear receptor subfamily 4 group A member 2 (Homo sapiens)
# protocol.summary: Inverse agonist activity at human Nurr1 LBD assessed as displacement of NCoR2 from Nurr1 after 2 hrs by HTRF assay
metric.name: pIC50
// pIC50 is dimensionless: -log10 of concentration (M)

-- ask Form field: reported pIC50 of COC(=O)c1cn(C)c2ccc(-c3cccnc3)cc12
-- reply 4.54

----------
# target.entity: Nuclear receptor subfamily 4 group A member 2 (Homo sapiens, UniProt P43354)
# Sequence (P43354 whole entry, the tested form may be a part): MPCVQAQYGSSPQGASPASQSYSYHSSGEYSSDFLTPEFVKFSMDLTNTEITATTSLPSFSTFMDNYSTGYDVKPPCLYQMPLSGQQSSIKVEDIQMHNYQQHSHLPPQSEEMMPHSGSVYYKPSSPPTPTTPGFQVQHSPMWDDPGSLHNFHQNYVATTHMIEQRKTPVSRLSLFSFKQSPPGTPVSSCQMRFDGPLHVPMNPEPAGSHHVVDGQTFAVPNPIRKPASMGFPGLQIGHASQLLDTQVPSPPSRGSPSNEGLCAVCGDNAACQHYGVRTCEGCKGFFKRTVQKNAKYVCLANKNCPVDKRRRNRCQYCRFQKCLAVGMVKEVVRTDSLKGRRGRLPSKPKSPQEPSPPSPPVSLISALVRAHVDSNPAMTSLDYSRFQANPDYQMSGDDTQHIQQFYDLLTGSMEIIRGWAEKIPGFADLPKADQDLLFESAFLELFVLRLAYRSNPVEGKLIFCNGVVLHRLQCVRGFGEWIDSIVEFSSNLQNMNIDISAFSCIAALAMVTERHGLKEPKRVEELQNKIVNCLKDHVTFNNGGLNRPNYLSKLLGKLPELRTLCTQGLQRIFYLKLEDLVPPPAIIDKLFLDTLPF
# protocol.summary: Inverse agonist activity at Gal4-fused human Nurr1 LBD expressed in HEK293T cells co-expressing firefly luciferase assessed as luciferase activity by hybrid reporter gene assay
# Type: cell-based
# setup.conditions: read-out: IC50
metric.name: log10 of IC50 (log10 of the value in µM)
Parameter value (number): base-10 log of IC50 in µM.

INSERT INTO measurements (structure_smiles, target_entity, recorded_result) VALUES
  ('COC(=O)c1c[nH]c2ccccc12', 'Nuclear receptor subfamily 4 group A member 2 (Homo sapiens, UniProt P43354)', 1.68),
  ('COC(=O)c1c[nH]c2ccc(Cl)cc12', 'Nuclear receptor subfamily 4 group A member 2 (Homo sapiens, UniProt P43354)', 1.38);

-- ask What reported log10 of IC50 corresponds to COC(=O)c1c(Cl)[nH]c2ccccc12 on Nuclear receptor subfamily 4 group A member 2 (Homo sapiens, UniProt P43354)?
-- reply 1.53

-- ask What reported log10 of IC50 corresponds to COC(=O)c1c[nH]c2cccc(Cl)c12 on Nuclear receptor subfamily 4 group A member 2 (Homo sapiens, UniProt P43354)?
-- reply 1.74

-- ask What reported log10 of IC50 corresponds to COC(=O)c1c[nH]c2cc(C)ccc12 on Nuclear receptor subfamily 4 group A member 2 (Homo sapiens, UniProt P43354)?
-- reply 1.76

----------
# target.entity: Nuclear receptor subfamily 4 group A member 2 (Homo sapiens, UniProt P43354)
# protocol.summary: Agonist activity at Gal4-fused human Nurr1 LBD expressed in HEK293T cells co-expressing firefly luciferase assessed as luciferase activity in presence of 5-(Pyridin-3-yl)-1-methylindole-3-carboxylic Acid Methyl Ester by hybrid reporter gene assay
# Assay type: cell-based
metric.name: pEC50
// pEC50 is dimensionless: -log10 of concentration (M)

-- ask Form field: reported pEC50 of CCN(CC)Cc1cc(Nc2ccnc3cc(Cl)ccc23)ccc1O
-- reply 4.09

----------
# target.entity: Nuclear receptor subfamily 4 group A member 2 (Homo sapiens)
# protocol.summary: Inverse agonist activity at human Nurr1 LBD assessed as displacement of NCoR1 from Nurr1 after 2 hrs by HTRF assay
metric.name: IC50 (µM)
Value expressed in µM; do not type the unit.

-- ask Form field: reported IC50 of COC(=O)c1cn(C)c2ccc(-c3cccnc3)cc12
-- reply 57

----------
# target.entity: Nuclear receptor subfamily 4 group A member 2 (Homo sapiens, UniProt P43354)
# protocol.summary: Inverse agonist activity at Gal4-fused human Nurr1 monomer response element NBRE expressed in HEK293T cells co-expressing firefly luciferase assessed as luciferase activity by hybrid reporter gene assay
# Type: cell-based
metric.name: pIC50
// pIC50 is dimensionless: -log10 of concentration (M)

-- ask Form field: reported pIC50 of COC(=O)c1cn(C)c2ccc(-c3cccnc3)cc12
-- reply 5.00

----------
# target.entity: Nuclear receptor subfamily 4 group A member 2 (Homo sapiens, UniProt P43354)
# protocol.summary: Agonist activity at Gal4-fused human Nurr1 LBD expressed in HEK293T cells co-expressing firefly luciferase assessed as luciferase activity by hybrid reporter gene assay
# Assay type: cell-based
metric.name: EC50 (µM)
Value expressed in µM; do not type the unit.

Examples with answers:
INSERT INTO results (structure_smiles, recorded_result) VALUES
  ('COC(=O)c1cn(-c2ccccc2)c2ccccc12', 81),
  ('CCN(CC)Cc1cc(Nc2ccnc3cc(Cl)ccc23)ccc1O', 41);

Would you kindly look at the next entry?
-- ask Form field: reported EC50 of O=C(Oc1ccccc1)c1c[nH]c2ccccc12
-- reply 11

----------
# target.entity: Nuclear receptor subfamily 4 group A member 2 (Homo sapiens, UniProt P43354)
# protocol.summary: Inverse agonist activity at Gal4-fused human Nurr1 LBD expressed in HEK293T cells co-expressing firefly luciferase assessed as luciferase activity in presence of AQ by hybrid reporter gene assay
# Format: cell-based
metric.name: pIC50
// pIC50 is dimensionless: -log10 of concentration (M)

-- ask Form field: reported pIC50 of COC(=O)c1cn(C)c2ccc(-c3cccnc3)cc12
-- reply 5.43

----------
# target.entity: Nuclear receptor subfamily 4 group A member 2 (Homo sapiens, UniProt P43354)
# protocol.summary: Inverse agonist activity at Gal4-fused human Nurr1 LBD expressed in HEK293T cells co-expressing firefly luciferase assessed as luciferase activity by hybrid reporter gene assay
# Format: cell-based
# setup.conditions: read-out: IC50
metric.name: pIC50
// pIC50 is dimensionless: -log10 of concentration (M)

INSERT INTO measurements (structure_smiles, metric_name, recorded_result) VALUES
  ('COC(=O)c1cn(C)c2ccccc12', 'pIC50', 4.68),
  ('COC(=O)c1c[nH]c2ccc(OC)cc12', 'pIC50', 4.64);

-- ask What reported pIC50 corresponds to COC(=O)c1c[nH]c2ccc(C)cc12 on Nuclear receptor subfamily 4 group A member 2 (Homo sapiens, UniProt P43354)?
-- reply 4.70

-- ask What reported pIC50 corresponds to COC(=O)c1c(C)[nH]c2ccccc12 on Nuclear receptor subfamily 4 group A member 2 (Homo sapiens, UniProt P43354)?
-- reply 4.28

-- ask What reported pIC50 corresponds to COC(=O)c1c[nH]c2c(C)cccc12 on Nuclear receptor subfamily 4 group A member 2 (Homo sapiens, UniProt P43354)?
-- reply 4.46

-- ask What reported pIC50 corresponds to COC(=O)c1cn(C)c2ccc(-c3cccnc3)cc12 on Nuclear receptor subfamily 4 group A member 2 (Homo sapiens, UniProt P43354)?
-- reply 5.42

-- ask What reported pIC50 corresponds to COC(=O)c1cn(C)c2c(Cl)cc(-c3cccnc3)cc12 on Nuclear receptor subfamily 4 group A member 2 (Homo sapiens, UniProt P43354)?
-- reply 4.96

----------
// reported pIC50 for each item listed
# target.entity: Nuclear receptor subfamily 4 group A member 2 (Homo sapiens, UniProt P43354)
# protocol.summary: Inverse agonist activity at Gal4-fused human Nurr1 LBD expressed in HEK293T cells co-expressing firefly luciferase assessed as luciferase activity by hybrid reporter gene assay
# Assay type: cell-based
# setup.conditions: read-out: IC50
// pIC50 is dimensionless: -log10 of concentration (M)

-- ask Form field: reported pIC50 of COC(=O)c1c[nH]c2c(Cl)cccc12
-- reply 4.72

-- ask Form field: reported pIC50 of CNC(=O)c1cn(C)c2ccc(-c3ccccc3)cc12
-- reply 4.85

-- ask Form field: reported pIC50 of COC(=O)c1c[nH]c2ccc(Br)cc12
-- reply 4.82

-- ask Form field: reported pIC50 of CCn1cc(C(=O)OC)c2ccccc21
-- reply 4.51

The measurements presented in this section are drawn from ChEMBL document CHEMBL4837262.
